Assay System: ItypOR36 (with ItypOrco) (Ips typographus, UniProt A0AAU6S471)
Construct: heteromeric OR/Orco ligand-gated ion channel; GenBank id is for ItypOR36; with Odorant receptor coreceptor
Sequence (A0AAU6S471 1-390): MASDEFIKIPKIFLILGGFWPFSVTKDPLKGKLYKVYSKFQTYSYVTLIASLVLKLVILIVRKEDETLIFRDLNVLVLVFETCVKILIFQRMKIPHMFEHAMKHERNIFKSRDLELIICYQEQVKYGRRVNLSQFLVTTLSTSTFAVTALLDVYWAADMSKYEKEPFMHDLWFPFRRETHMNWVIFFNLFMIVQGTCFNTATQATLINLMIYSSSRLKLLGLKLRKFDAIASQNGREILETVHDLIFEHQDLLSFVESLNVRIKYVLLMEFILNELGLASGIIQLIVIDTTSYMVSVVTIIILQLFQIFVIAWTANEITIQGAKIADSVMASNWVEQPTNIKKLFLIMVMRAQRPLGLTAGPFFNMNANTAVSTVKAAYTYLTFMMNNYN
Measurement Description: Fluo4-AM calcium fluorescence in HEK293 cells, dose-response
Experimental Parameters: agonist; co-expressed ItypOrco; doxycycline-induced; DPBS with 1 mM probenecid, pH 7.1

{"Smiles Code": "CC1=CC(C)(C)C=C(O)C1=O", "Unit Abbreviation": "nM", "EC50": 790}
